molecular target: Artificial Cell Surface (ACS); assay: ACS column adsorption of Asp-N-digested dHSA, MALDI-TOF MS
For each of the binders below, state its Percent Absorbed.
Response body: numeric value in %, unit text excluded.

Please report the recorded Percent Absorbed for YLSVVLNQLCVLHEKTPVSDRVTKCCCTESLVNRRPFSALEV [… (Asp-N-generated albumin fragment, SEQ ID NO: 230)] .
37

Endpoint output: Percent Absorbed of KLCTVATLRETYGEMADCCAKQEPERNECFLQHK [… (Asp-N-generated albumin fragment, SEQ ID NO: 224)] . Value?
100

Quick one: Percent Absorbed for ICTLSEKERQIKKQTALVELVKHKPKATKEQLKAVM [… (Asp-N-generated albumin fragment, SEQ ID NO: 225)] ?
100

Need Percent Absorbed, item YSVVLLLRLAKTYETTLEKCCAAADPHECYAKVF [… (Asp-N-generated albumin fragment, SEQ ID NO: 223)]
100

Which Percent Absorbed value is on record for DSISSKLKECCEKPLLEKSHCIAEVEN [… (Asp-N-generated albumin fragment, SEQ ID NO: 221)] ?
65

# Percent Absorbed lookup, item DHVKLVNEVTEFAKTCVA [… (Asp-N-generated albumin fragment, SEQ ID NO: 217)]
100

Could you tell me which Percent Absorbed is on file for DRVTKCCTESLVNRRPCFSALEV [… (Asp-N-generated albumin fragment, SEQ ID NO: 219)] ?
87

Which Percent Absorbed value belongs to LGEENFKALVLIAFAQYLQQCPFEDHVKLVNEVTEFAKTCVA [… (Asp-N-generated albumin fragment, SEQ ID NO: 228)] ?
100

Look up Percent Absorbed for this binder: DETYVPKEFNAETFTHA [… (Asp-N-generated albumin fragment, SEQ ID NO: 220)]
86

Any idea what Percent Absorbed was measured for DDKETCFAEEGKKLVAASQAALGL [… (Asp-N-generated albumin fragment, SEQ ID NO: 218)] ?
100

I'd like to know its Percent Absorbed. The binder in question is RVTKCCTESLVNRRPCFSALEVDETYVPKEFNAETFTFHA [… (Asp-N-generated albumin fragment, SEQ ID NO: 229)]
100

Param item = LAKYICENQDSISSKLKECCEKPLLEKHCIAEVEN [… (Asp-N-generated albumin fragment, SEQ ID NO: 226)] ; retrieve measured Percent Absorbed.
100

Fill in the blank: the reported Percent Absorbed of VFLGMFLYEYARRHPDYSVVLLLRLAKTYETTLEKCCAAA [… LEKCCAAA (Asp-N-generated albumin fragment, SEQ ID NO: 227)] is ____.
100

Need Percent Absorbed, item DKLCTVATLRETYGEM [… (Asp-N-generated albumin fragment, SEQ ID NO: 222)]
65

Values compiled from patent US20180177842A1.
